// reported pKa per item
Assay Remarks: physchem
Description: Ionization constant (pKa)
Endpoint: pKa

[
  {
    "Smiles Notation": "COC(=O)Nc1ccc2c(Nc3ccc(NS(C)(=O)=O)cc3)c3ccccc3nc2c1",
    "Value": 7.48
  },
  {
    "Smiles Notation": "COc1ccc2c(Nc3ccc(NS(C)(=O)=O)cc3)c3ccccc3nc2c1",
    "Value": 7.57
  },
  {
    "Smiles Notation": "COc1cccc2c(Nc3ccc(NS(C)(=O)=O)cc3)c3ccccc3nc12",
    "Value": 7.15
  },
  {
    "Smiles Notation": "CS(=O)(=O)Nc1ccc(Nc2c3ccccc3nc3cc(C#N)ccc23)cc1",
    "Value": 5.75
  },
  {
    "Smiles Notation": "Cc1ccc2c(Nc3ccc(NS(C)(=O)=O)cc3)c3ccccc3nc2c1",
    "Value": 7.49
  },
  {
    "Smiles Notation": "CNc1ccc2c(Nc3ccc(NS(C)(=O)=O)cc3)c3ccccc3nc2c1",
    "Value": 9.3
  },
  {
    "Smiles Notation": "CS(=O)(=O)Nc1ccc(Nc2c3ccccc3nc3cc(N=[N+]=[N-])ccc23)cc1",
    "Value": 7
  },
  {
    "Smiles Notation": "Cc1ccc2nc3ccccc3c(Nc3ccc(NS(C)(=O)=O)cc3)c2c1",
    "Value": 7.23
  },
  {
    "Smiles Notation": "CS(=O)(=O)Nc1ccc(Nc2c3ccccc3nc3ccc(C(N)=O)cc23)cc1",
    "Value": 6.34
  },
  {
    "Smiles Notation": "Cc1cccc2nc3ccccc3c(Nc3ccc(NS(C)(=O)=O)cc3)c12",
    "Value": 6.43
  }
]
